The entries below come with measured GI50 values attached.
- Tested on: SNB-75
- Run Description: NCI tumour cell line growth inhibition, 48 h
The source made the active and inactive calls. Rule as the data show it: active = GI50 up to about 1.1 µM and inactive = higher.

# input Return reported GI50; argument: CC(O)c1ccc(C(O)/C(=N\NC(=O)c2ccncc2)c2nc3ccc([N+](=O)[O-])cc3nc2O)cc1 (stereo unspecified)
# output > 100 µM (inactive)

# input Report GI50 for "c1ccc(CN2CCC3(CC2)SSC2(CCN(Cc4ccccc4)CC2)SS3)cc1" please.
# output > 100 µM (inactive)

# input Can you share its GI50? I mean this molecule: CC(=O)OC12c3ccccc3C1CCCCCC21OCCCO1 (stereo unspecified)
# output > 100 µM (inactive)

# input Given the entry CC(C)C1CN(C(=O)OCc2ccccc2)C2N1C(=O)C2(C)OCc1ccccc1 (stereo unspecified) , report its measured GI50.
# output 16.7 µM (inactive)

# input GET /values?readout=GI50&item= "COc1ccc(/C(=N/OCCCC(=O)O)c2cccs2)cc1"
# output > 100 µM (inactive)

# input State the recorded GI50 for this entry: "CC(=O)Nc1ccc(C2=N/C(=C\c3ccc(Cl)c(Cl)c3)C(=O)O2)cc1"
# output 64.6 µM (inactive)
